Taken from the supplement of paper PMC6757056.

This listing pairs variants with measured normalized RNA/DNA level without ligand (log10).
B1: library; a variant is named by its letters at N, in order (parent)
chain: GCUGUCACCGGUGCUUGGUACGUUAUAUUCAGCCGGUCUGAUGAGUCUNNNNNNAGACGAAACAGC

Variants of: B1
Assay: normalized RNA/DNA level without ligand (relative to sTRSVctl = 100) (log10 (% of sTRSVctl)); HEK293T overexpressing SLC46A1; higher = less ribozyme self-cleavage, higher mRNA level
Details: without (6R,S)-folinic acid; ligand present: no
Answer as a number with no unit attached.

UAGACC    2.04

Record CAGUCC . Reported normalized RNA/DNA level without ligand (log10): 2.05

Record AUGACA . Reported normalized RNA/DNA level without ligand (log10): 1.99

Record UCAUUA . Reported normalized RNA/DNA level without ligand (log10): 2

Record UAUUUA . Reported normalized RNA/DNA level without ligand (log10): 1.98

Record AGUGCG . Reported normalized RNA/DNA level without ligand (log10): 1.85

Record UAUGCA . Reported normalized RNA/DNA level without ligand (log10): 1.95

Record CGAGUA . Reported normalized RNA/DNA level without ligand (log10): 1.97

Record GCUGCU . Reported normalized RNA/DNA level without ligand (log10): 2.04

Record UACCUA . Reported normalized RNA/DNA level without ligand (log10): 2.02

Record CCGGCU . Reported normalized RNA/DNA level without ligand (log10): 2.08

Record UACUAG . Reported normalized RNA/DNA level without ligand (log10): 1.83

Record UUCCGG . Reported normalized RNA/DNA level without ligand (log10): 2.02

Record UACAAG . Reported normalized RNA/DNA level without ligand (log10): 1.74

Record GUUUCU . Reported normalized RNA/DNA level without ligand (log10): 1.97

Record GGCCAA . Reported normalized RNA/DNA level without ligand (log10): 2.05

Record CAGGCG . Reported normalized RNA/DNA level without ligand (log10): 2.02

Record CCGGUG . Reported normalized RNA/DNA level without ligand (log10): 2.04

Record CUAUGG . Reported normalized RNA/DNA level without ligand (log10): 1.97

Record UUACAG . Reported normalized RNA/DNA level without ligand (log10): 1.9

Record GAGAGC . Reported normalized RNA/DNA level without ligand (log10): 1.94

Record GAGGGC . Reported normalized RNA/DNA level without ligand (log10): 1.96

Record CGGUAA . Reported normalized RNA/DNA level without ligand (log10): 1.95
